System: Escherichia coli TOP10
TEST DETAILS: shrunken log2 fold change of peptide-encoding DNA abundance (4.5 h post-induction vs induction); higher = less antimicrobial activity (less host growth inhibition)
TEST CONDITIONS: time post-induction: 4.5 h; library: site-saturation at positions 5, 18, 19, 20
PARAMETER MEASURED: shrunken log2 fold change
Just the number, please, no unit after it.

Consider "RRIRSRPPRLPRPRPRPQRTPRP" . Its measured shrunken log2 fold change is -0.036

Consider "RRIRMRPPRLPRPRPRPLMWPRP" . Its measured shrunken log2 fold change is 0.268

Consider "RRIRWRPPRLPRPRPRPRQMPRP" . Its measured shrunken log2 fold change is 0.0196

Consider "RRIRGRPPRLPRPRPRPDRSPRP" . Its measured shrunken log2 fold change is 0.23

Consider "RRIRSRPPRLPRPRPRPRCVPRP" . Its measured shrunken log2 fold change is 0.116

Consider "RRIRFRPPRLPRPRPRPTFHPRP" . Its measured shrunken log2 fold change is -0.385

Consider "RRIRLRPPRLPRPRPRPFCEPRP" . Its measured shrunken log2 fold change is -0.157

Consider "RRIRIRPPRLPRPRPRPHCAPRP" . Its measured shrunken log2 fold change is -0.0649

====

System: Escherichia coli TOP10
TEST DETAILS: shrunken log2 fold change of peptide-encoding DNA abundance (4.5 h post-induction vs induction); higher = less antimicrobial activity (less host growth inhibition)
TEST CONDITIONS: time post-induction: 4.5 h; library: site-saturation at positions 5, 18, 19, 20
PARAMETER MEASURED: shrunken log2 fold change
Just the number, please, no unit after it.

The recorded shrunken log2 fold change with Escherichia coli TOP10 for "RRIRCRPPRLPRPRPRPGLFPRP" was 0.154

The recorded shrunken log2 fold change with Escherichia coli TOP10 for "RRIRFRPPRLPRPRPRPPYIPRP" was -0.282

The recorded shrunken log2 fold change with Escherichia coli TOP10 for "RRIRKRPPRLPRPRPRPLKDPRP" was -0.22

The recorded shrunken log2 fold change with Escherichia coli TOP10 for "RRIRCRPPRLPRPRPRPEIKPRP" was 0.0171

The recorded shrunken log2 fold change with Escherichia coli TOP10 for "RRIRYRPPRLPRPRPRPEFVPRP" was -0.327

The recorded shrunken log2 fold change with Escherichia coli TOP10 for "RRIRLRPPRLPRPRPRPTGDPRP" was -0.00286

The recorded shrunken log2 fold change with Escherichia coli TOP10 for "RRIRKRPPRLPRPRPRPTHNPRP" was 0.299

The recorded shrunken log2 fold change with Escherichia coli TOP10 for "RRIRLRPPRLPRPRPRPERRPRP" was -0.0189

====

Provide the recorded shrunken log2 fold change for the entries that follow.
Tested on: Escherichia coli TOP10;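 also: peptides expressed intracellularly from a pBAD plasmid library in pooled LB shake-flask culture, induced with 0.3% L-arabinose, DNA abundance read by NGS, three biological replicates, DESeq2 with apeglm shrinkage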
TEST DETAILS: shrunken log2 fold change of peptide-encoding DNA abundance (4.5 h post-induction vs induction); higher = less antimicrobial activity (less host growth inhibition)
TEST CONDITIONS: time post-induction: 4.5 h; library: site-saturation at positions 5, 18, 19, 20
Just the number, please, no unit after it.

Consider "RRIRKRPPRLPRPRPRPWLPPRP" . Its measured shrunken log2 fold change is 0.0665

Consider "RRIRNRPPRLPRPRPRPVPLPRP" . Its measured shrunken log2 fold change is -0.539

Consider "RRIRVRPPRLPRPRPRPPAQPRP" . Its measured shrunken log2 fold change is 0.223

Consider "RRIRERPPRLPRPRPRPPWFPRP" . Its measured shrunken log2 fold change is 0.0508

Consider "RRIRHRPPRLPRPRPRPSVCPRP" . Its measured shrunken log2 fold change is -0.294

Consider "RRIRCRPPRLPRPRPRPMDCPRP" . Its measured shrunken log2 fold change is -0.0376

Consider "RRIRWRPPRLPRPRPRPQDIPRP" . Its measured shrunken log2 fold change is -0.352

Consider "RRIRHRPPRLPRPRPRPIGWPRP" . Its measured shrunken log2 fold change is 0.0927

Consider "RRIRFRPPRLPRPRPRPIILPRP" . Its measured shrunken log2 fold change is -1.74

Consider "RRIRGRPPRLPRPRPRPPNCPRP" . Its measured shrunken log2 fold change is 0.266

Consider "RRIRMRPPRLPRPRPRPKNPPRP" . Its measured shrunken log2 fold change is 0.145

Consider "RRIRGRPPRLPRPRPRPRPRPRP" . Its measured shrunken log2 fold change is 1.31

Consider "RRIRVRPPRLPRPRPRPSFLPRP" . Its measured shrunken log2 fold change is -0.666

Consider "RRIRERPPRLPRPRPRPGGEPRP" . Its measured shrunken log2 fold change is 0.127

Consider "RRIRDRPPRLPRPRPRPTPRPRP" . Its measured shrunken log2 fold change is 0.792

Consider "RRIRHRPPRLPRPRPRPDVRPRP" . Its measured shrunken log2 fold change is -0.00783

Consider "RRIRIRPPRLPRPRPRPAIKPRP" . Its measured shrunken log2 fold change is -0.265

Consider "RRIRRRPPRLPRPRPRPQMQPRP" . Its measured shrunken log2 fold change is -0.205

Consider "RRIRARPPRLPRPRPRPGPIPRP" . Its measured shrunken log2 fold change is 0.341

Consider "RRIRARPPRLPRPRPRPWIFPRP" . Its measured shrunken log2 fold change is -0.114

Consider "RRIRRRPPRLPRPRPRPKINPRP" . Its measured shrunken log2 fold change is -0.123

Consider "RRIRGRPPRLPRPRPRPTLTPRP" . Its measured shrunken log2 fold change is 1.1

Consider "RRIRGRPPRLPRPRPRPVNMPRP" . Its measured shrunken log2 fold change is 0.189

Consider "RRIRSRPPRLPRPRPRPCMCPRP" . Its measured shrunken log2 fold change is -0.0077

Consider "RRIRHRPPRLPRPRPRPSCMPRP" . Its measured shrunken log2 fold change is -0.224

Consider "RRIRLRPPRLPRPRPRPRSRPRP" . Its measured shrunken log2 fold change is 0.394

Consider "RRIRVRPPRLPRPRPRPMMMPRP" . Its measured shrunken log2 fold change is -0.0802

Consider "RRIRCRPPRLPRPRPRPGWVPRP" . Its measured shrunken log2 fold change is 0.513

Consider "RRIRDRPPRLPRPRPRPKTAPRP" . Its measured shrunken log2 fold change is 0.00938

Consider "RRIRHRPPRLPRPRPRPLIQPRP" . Its measured shrunken log2 fold change is -0.0847

Consider "RRIRFRPPRLPRPRPRPEVEPRP" . Its measured shrunken log2 fold change is 0.00408

Consider "RRIRMRPPRLPRPRPRPTWGPRP" . Its measured shrunken log2 fold change is 0.564

Consider "RRIRLRPPRLPRPRPRPSYNPRP" . Its measured shrunken log2 fold change is -0.588

Consider "RRIRMRPPRLPRPRPRPTYIPRP" . Its measured shrunken log2 fold change is -1.08

Consider "RRIRWRPPRLPRPRPRPIEAPRP" . Its measured shrunken log2 fold change is 0.199

Consider "RRIRVRPPRLPRPRPRPIRQPRP" . Its measured shrunken log2 fold change is -0.294

Consider "RRIRERPPRLPRPRPRPLKNPRP" . Its measured shrunken log2 fold change is -0.477

Consider "RRIRWRPPRLPRPRPRPTCCPRP" . Its measured shrunken log2 fold change is 1.13

Consider "RRIRYRPPRLPRPRPRPGEVPRP" . Its measured shrunken log2 fold change is -0.0129

Consider "RRIRHRPPRLPRPRPRPVWTPRP" . Its measured shrunken log2 fold change is -0.225

Consider "RRIRRRPPRLPRPRPRPTIKPRP" . Its measured shrunken log2 fold change is -0.0992

Consider "RRIRPRPPRLPRPRPRPARHPRP" . Its measured shrunken log2 fold change is 0.616

Consider "RRIRNRPPRLPRPRPRPMFDPRP" . Its measured shrunken log2 fold change is -0.253

Consider "RRIRWRPPRLPRPRPRPDPQPRP" . Its measured shrunken log2 fold change is -0.00387

Consider "RRIRFRPPRLPRPRPRPRENPRP" . Its measured shrunken log2 fold change is 0.449

Consider "RRIRRRPPRLPRPRPRPAMTPRP" . Its measured shrunken log2 fold change is 0.314

Consider "RRIRARPPRLPRPRPRPFPHPRP" . Its measured shrunken log2 fold change is 0.146

Consider "RRIRCRPPRLPRPRPRPLNVPRP" . Its measured shrunken log2 fold change is -0.186

Consider "RRIRDRPPRLPRPRPRPGNKPRP" . Its measured shrunken log2 fold change is -0.0705

Consider "RRIRNRPPRLPRPRPRPDLHPRP" . Its measured shrunken log2 fold change is 1.8

Consider "RRIRMRPPRLPRPRPRPWEIPRP" . Its measured shrunken log2 fold change is -0.00146

Consider "RRIRFRPPRLPRPRPRPPDNPRP" . Its measured shrunken log2 fold change is -0.115

Consider "RRIRARPPRLPRPRPRPVSRPRP" . Its measured shrunken log2 fold change is 0.661

Consider "RRIRHRPPRLPRPRPRPFDQPRP" . Its measured shrunken log2 fold change is -0.0783

Consider "RRIRDRPPRLPRPRPRPQQRPRP" . Its measured shrunken log2 fold change is 0.147

Consider "RRIRLRPPRLPRPRPRPADLPRP" . Its measured shrunken log2 fold change is 0.0231

Consider "RRIRERPPRLPRPRPRPYEQPRP" . Its measured shrunken log2 fold change is -0.395

Consider "RRIRERPPRLPRPRPRPIVCPRP" . Its measured shrunken log2 fold change is -0.022

Consider "RRIRKRPPRLPRPRPRPICDPRP" . Its measured shrunken log2 fold change is 0.0999

Consider "RRIRYRPPRLPRPRPRPVPAPRP" . Its measured shrunken log2 fold change is -0.156

Consider "RRIRMRPPRLPRPRPRPGMMPRP" . Its measured shrunken log2 fold change is 0.185

Consider "RRIRLRPPRLPRPRPRPDVIPRP" . Its measured shrunken log2 fold change is -0.161

Consider "RRIRKRPPRLPRPRPRPPTRPRP" . Its measured shrunken log2 fold change is 1.49
